Assay: Pharmacokinetics, dried blood spot LC-MS/MS, mice with SW620 tumors
Format: in vivo
Conditions: Swiss Nu/nu, mouse, whole blood (dried blood spot), po, given as part of SW620-specific ODC; regorafenib 30, vemurafenib 75, GDC-0994 10 mg/kg
Would you mind telling me the reported Tmax of each entry?
Please respond with the number in h and leave the unit unwritten.

Kindly indicate its recorded Tmax. Item: "CCCS(=O)(=O)Nc1ccc(F)c(C(=O)c2c[nH]c3ncc(-c4ccc(Cl)cc4)cc23)c1F"
4

Kindly indicate its recorded Tmax. Item: "CNC(=O)c1cc(Oc2ccc(NC(=O)Nc3ccc(Cl)c(C(F)(F)F)c3)c(F)c2)ccn1"
4

Kindly indicate its recorded Tmax. Item: "Cn1cnc2c(F)c(Nc3ccc(Br)cc3Cl)c(C(=O)NOCCO)cc21"
2
